# EXPERIMENTAL SYSTEM: PI3K-α (PIK3CA) wild-type (WT), p110α/p85α complex (Homo sapiens)
# Construct: Recombinant, catalytically active human full length PIK3KA Wild-type and H1047R mutant; 6×His (N); purchased EMD Millipore Sigma 14-602M
# EXPERIMENT NOTES: PI3K-alpha kinase (PIK3CA) biochemical activity, ADP-Glo, wild-type
# MEASUREMENT SETUP: Soy PI lipid substrate
pIC50: −log10 of the molar value.
ENDPOINT: pIC50

Cc1cc([C@@H](C)Nc2ccccc2C(=O)O)c2oc(-c3cc4cnccc4o3)c(C(F)(F)F)c(=O)c2c1 : 6.00 to 6.30
Cc1cc(C(C)Nc2ccccc2C(=O)O)c2oc(-c3ccc4ccnn4c3)cc(=O)c2c1 (single isomer, unassigned) : 5.30 to 6.00

response.value for Cc1cc(-c2cc(=O)c3cc(C(F)(F)F)cc(C(C)Nc4ccc(Cl)nc4C(=O)O)c3o2)cc2cn(C)nc12 (stereo not shown) [Example 174] (field: pIC50) = < 5.00

pIC50 in this record for Cc1cc(C(C)Nc2ccccc2C(=O)O)c2oc(-c3ccc4cc[nH]c4c3)c(C)c(=O)c2c1 (single isomer, unassigned) : 5.30 to 6.00

====

# EXPERIMENTAL SYSTEM: PI3K-α (PIK3CA) wild-type (WT), p110α/p85α complex (Homo sapiens)
# Construct: Recombinant, catalytically active human full length PIK3KA Wild-type and H1047R mutant; 6×His (N); purchased EMD Millipore Sigma 14-602M
# EXPERIMENT NOTES: PI3K-alpha kinase (PIK3CA) biochemical activity, ADP-Glo, wild-type
# MEASUREMENT SETUP: Soy PI lipid substrate
pIC50: −log10 of the molar value.
ENDPOINT: pIC50

Consider the following illustrative entries.
Cc1cc(C(C)Nc2ccccc2C(=O)O)c2oc(-c3ccc4c(cnn4C)n3)cc(=O)c2c1 (single isomer, unassigned) [Example 164] : 5.30 to 6.00
Cc1cc(C(C)Nc2ccccc2C(=O)O)c2oc(-c3ccc4cn[nH]c4n3)cc(=O)c2c1 (single isomer, unassigned) : 5.30 to 6.00
Cc1cc(C(C)Nc2ccccc2C(=O)O)c2oc(-c3cc(C)c4nn(C)cc4c3)cc(=O)c2c1 (single isomer, unassigned) [Example 144] : 5.30 to 6.00

Record Cc1cc(C(C)Nc2ccccc2C(=O)O)c2oc(-c3cnc4cc[nH]c4c3)cc(=O)c2c1 (single isomer, unassigned) , field pIC50: 5.30 to 6.00

Short answer for Cc1cc(C(C)Nc2ccc(Cl)c(F)c2C(=O)O)c2oc(-c3c(C)nc4ccccn34)cc(=O)c2c1 (single isomer, unassigned) : pIC50 was 5.30 to 6.00

Notebook: Cc1cc(C(C)Nc2ccccc2C(=O)O)c2oc(-c3ccc4nn(C)cc4c3)cc(=O)c2c1 (single isomer, unassigned) [Example 75] , pIC50 read as 6.00 to 6.30

# compound Cc1cc(C(C)Nc2ccccc2C(=O)O)c2oc(-c3ccc4cn(C)nc4c3)cc(=O)c2c1 (single isomer, unassigned) ; its pIC50 = 5.30 to 6.00

Measured pIC50, Cc1cc([C@@H](C)Nc2ccc(Cl)cc2C(=O)O)c2oc(-c3ccc4c(cnn4C)c3)c(C)c(=O)c2c1 : > 6.30

Given item Cc1cc(C(C)Nc2ccccc2C(=O)O)c2oc(-c3cccn4nccc34)cc(=O)c2c1 (single isomer, unassigned) , the value recorded as its pIC50 is > 6.30

Looking up Cc1cc(C(C)Nc2ccccc2C(=O)O)c2oc(-c3ccc4nc(C(F)(F)F)cn4c3)c(C)c(=O)c2c1 (single isomer, unassigned) , I found its pIC50 recorded as 5.30 to 6.00

The measured pIC50 associated with Cc1cc(C(C)Nc2ccccc2C(=O)O)c2oc(-c3ccc4c(C#N)nn(C)c4c3)cc(=O)c2c1 (single isomer, unassigned) reads 5.30 to 6.00

Item: Cc1cc(C(C)Nc2ccccc2C(=O)O)c2oc(-c3ccc4cncnc4c3)cc(=O)c2c1 (single isomer, unassigned) | pIC50: < 5.00
